Source listed as patent US20070173416A1.

protocol.description: physchem
test.context: buffer, Half-Life in Neutral Water at 100° C.
Quick reference for half-life among some compounds
assay.readout: half-life

# compound, assay.readout, result
records = [
    ("CC(=O)OCC(COC(C)=O)OC(C)=O", "half-life", "2.73 h"),
    ("CCCCOC(=O)C(C)O (centres unmarked) [Butyl lactate]", "half-life", "21.3 h"),
    ("CCCOC(=O)C(C)O (centres unmarked) [Propyl lactate]", "half-life", "25.8 h"),
    ("COC(=O)C(C)O (centres unmarked) [Methyl lactate]", "half-life", "2.71 h"),
    ("CCOC(=O)C(C)O (centres unmarked) [Ethyl Lactate]", "half-life", "8.71 h"),
]

---

protocol.description: physchem
test.context: deionized water, 100° C.
assay.readout: hydrolysis rate / reaction rate (comparison in words)

# compound, result
records = [
    ("CC(=O)OCC(COC(C)=O)OC(C)=O [Triacetin]", "very similar"),
    ("CC(=O)OCC(O)COC(C)=O [Diacetin]", "very similar"),
]

---

protocol.description: physchem
test.context: hydrolysis in neutral water at 100° C.
List of Pseudo First Order Rate Constant values.

# molecule, Pseudo First Order Rate Constant
rows = [
    ("CC(=O)OCC(COC(C)=O)OC(C)=O", "7.04 × 10^−5 sec.^−1"),
    ("CC(=O)OCC(O)CO (stereo not shown)", "1.8 × 10^−5 sec.^−1"),
    ("COC(=O)C(C)O (stereo not shown) [Methyl lactate]", "2.1 × 10^−5 sec.^−1"),
    ("CCOC(=O)C(C)O (stereo not shown) [Ethyl Lactate]", "2.2 × 10^−5 sec.^−1"),
    ("CC(=O)OCC(O)COC(C)=O", "4.75 × 10^−5 sec.^−1"),
    ("CCCCOC(=O)C(C)O (stereo not shown) [Butyl lactate]", "9.03 × 10^−6 sec.^−1"),
    ("CCCOC(=O)C(C)O (stereo not shown) [Propyl lactate]", "7.4 × 10^−6 sec.^−1"),
]

---

protocol.description: physchem
test.context: buffer, half-life
assay.readout: half-life

# compound, assay.readout, result
rows = [
    ("O=COCCOCCOC=O [diethyleneglycol diformate, reference compound]", "half-life", "0.3 to 0.333 h"),
    ("CCOC(=O)C(C)O (centres unmarked) [Ethyl Lactate]", "half-life", "10 to 11 h"),
]
